Ref: patent US20140378513A1

# Test system: Scenedesmus dimorphus
# MEASUREMENT_PROTOCOL: Algae sensitivity screen, 96 well, growth rate by A750 over 8 days
# Type: cell-based
# ASSAY_SETUP: Scenedesmus dimorphus
# Protocol: The total volume per well is 200 μl. Each chemical is tested in triplicate.
READOUT_LABEL: Scenedesmus dimorphus toxicity

Qu. Name the recorded Scenedesmus dimorphus toxicity for N#Cc1sc2c(=O)c3ccccc3c(=O)c=2sc1C#N .
Ans. 0.625-2.5 ppm

Qu. Same lookup for CCCOC/C(=N\c1ccc(Cl)cc1C(F)(F)F)n1ccnc1 , please.
Ans. 1.563-6.25 ppm

Qu. Same lookup for CCC(C)(NC(=O)c1cc(Cl)c(C)c(Cl)c1)C(=O)CCl (stereo not drawn) [zoxamide] , please.
Ans. 0.0625-0.250 ppm

Qu. Same lookup for Cc1ccc(N(SC(F)(Cl)Cl)S(=O)(=O)N(C)C)cc1 , please.
Ans. 1.56-6.25 ppm

Qu. Same lookup for Cc1ccc(-c2c(Cl)nc(C#N)n2S(=O)(=O)N(C)C)cc1 , please.
Ans. 0.03125-0.125 ppm

Qu. Same lookup for CCCN(CC)CC1COC2(CCC(C(C)(C)C)CC2)O1 (stereo not drawn) , please.
Ans. 0.0625-0.250 ppm

---

# Tested on: Desmid species
# MEASUREMENT_PROTOCOL: Algae sensitivity screen, 96 well, growth rate by A750 over 8 days
# Assay type: cell-based
# ASSAY_SETUP: log phase culture, 10 fold dilutions
Field: Desmid species toxicity. Provide a value for each of the compounds that follow.

Qu. Name the recorded Desmid species toxicity for O=C(Nc1ccccc1)N(Cc1ccc(Cl)cc1)C1CCCC1 .
Ans. 3.125-12.5 ppm

Qu. Same lookup for CON=C(Cc1cccnc1)c1ccc(Cl)cc1Cl , please.
Ans. 0.004-0.0156 ppm

Qu. Same lookup for CNC(=O)/C(=N/OC)c1ccccc1COc1cc(C)ccc1C , please.
Ans. 0.004-0.0156 ppm

Qu. Same lookup for CC(Cc1ccc(C(C)(C)C)cc1)CN1CCCCC1 (stereo not shown) , please.
Ans. 0.031-0.125 ppm

Qu. Same lookup for CCCOC(=O)NCCCN(C)C , please.
Ans. 3.906-15.625 ppm

Qu. Same lookup for CC1=C(C(=O)Nc2ccccc2)SCCO1 , please.
Ans. 0.977-3.906 ppm

Qu. Same lookup for O=C1C2CC=CCC2C(=O)N1SC(Cl)(Cl)Cl (stereo not shown) , please.
Ans. 31.25-125 ppm

---

Field: Scenedesmus dimorphus toxicity. Provide a value for each of the molecules that follow.
# Tested on: Scenedesmus dimorphus
# MEASUREMENT_PROTOCOL: Algae sensitivity screen, 96 well, growth rate by A750 over 8 days
# Format: cell-based
# ASSAY_SETUP: log phase culture, 10 fold dilutions

Qu. Name the recorded Scenedesmus dimorphus toxicity for OC(c1ccc(Cl)cc1)(c1cncnc1)c1ccccc1Cl (centres unmarked) .
Ans. 0.0489-0.195 ppm

Qu. Same lookup for CC1CN(C2CCCCCCCCCCC2)CC(C)O1 (centres unmarked) , please.
Ans. 0.195-0.781 ppm

Qu. Same lookup for CCCOC(=O)NCCCN(C)C , please.
Ans. 15.63-62.5 ppm

Qu. Same lookup for CC(Cc1ccc(C(C)(C)C)cc1)CN1CCCCC1 (centres unmarked) , please.
Ans. 0.00195-0.0078 ppm

Qu. Same lookup for CC1=C(C(=O)Nc2ccccc2)SCCO1 , please.
Ans. 0-0.244 ppm

Qu. Same lookup for CNC(=O)/C(=N/OC)c1ccccc1COc1cc(C)ccc1C , please.
Ans. 0.0156-0.0625 ppm

Qu. Same lookup for O=C1C2CC=CCC2C(=O)N1SC(Cl)(Cl)Cl (centres unmarked) , please.
Ans. 1.953-7.813 ppm

Qu. Same lookup for O=C(Nc1ccccc1)N(Cc1ccc(Cl)cc1)C1CCCC1 , please.
Ans. 3.125-12.5 ppm

Qu. Same lookup for O=C(Nc1ccccc1)c1ccccc1I [benodanil, 2-Iodo-N-phenylbenzamide] , please.
Ans. 0.3125-1.25 ppm

Qu. Same lookup for CCC(C)c1cc([N+](=O)[O-])cc([N+](=O)[O-])c1OC(=O)C=C(C)C (centres unmarked) , please.
Ans. 0.125-0.5 ppm

Qu. Same lookup for CON=C(Cc1cccnc1)c1ccc(Cl)cc1Cl , please.
Ans. 0.039-0.156 ppm
